Recorded IC50, one value per entry.
biological target: PARG (Homo sapiens (Human)); assay: PARG TFMU assay (4-(trifluoromethyl)umbelliferone substrate); format: biochemical; details: PARG 250 pM or 2 nM, 10-point dose response
Sequence (Q86W56 whole entry): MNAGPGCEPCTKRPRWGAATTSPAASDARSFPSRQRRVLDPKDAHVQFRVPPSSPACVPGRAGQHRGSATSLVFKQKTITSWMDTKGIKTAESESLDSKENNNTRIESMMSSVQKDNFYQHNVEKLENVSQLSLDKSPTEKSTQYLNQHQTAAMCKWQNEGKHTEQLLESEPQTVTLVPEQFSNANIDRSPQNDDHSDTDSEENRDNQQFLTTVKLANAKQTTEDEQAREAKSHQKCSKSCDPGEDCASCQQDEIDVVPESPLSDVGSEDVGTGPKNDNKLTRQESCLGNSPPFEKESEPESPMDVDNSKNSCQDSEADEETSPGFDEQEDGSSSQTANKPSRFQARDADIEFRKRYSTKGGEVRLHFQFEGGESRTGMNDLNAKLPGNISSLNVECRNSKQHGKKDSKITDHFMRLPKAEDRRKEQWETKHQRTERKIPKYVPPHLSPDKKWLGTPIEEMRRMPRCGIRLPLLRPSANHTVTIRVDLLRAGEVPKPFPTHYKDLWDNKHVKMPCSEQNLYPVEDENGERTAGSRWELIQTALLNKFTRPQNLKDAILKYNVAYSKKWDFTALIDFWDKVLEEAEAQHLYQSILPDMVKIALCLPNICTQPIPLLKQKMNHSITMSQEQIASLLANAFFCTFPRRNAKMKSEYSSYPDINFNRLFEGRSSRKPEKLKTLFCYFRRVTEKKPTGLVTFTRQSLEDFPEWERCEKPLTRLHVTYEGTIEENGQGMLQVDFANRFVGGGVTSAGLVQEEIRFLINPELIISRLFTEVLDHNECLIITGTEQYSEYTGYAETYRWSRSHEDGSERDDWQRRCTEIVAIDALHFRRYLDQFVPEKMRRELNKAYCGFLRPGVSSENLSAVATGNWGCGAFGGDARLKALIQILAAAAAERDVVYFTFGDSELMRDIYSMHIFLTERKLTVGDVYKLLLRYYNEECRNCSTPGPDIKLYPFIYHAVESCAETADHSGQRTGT

// known answers, use as guide
1. CCn1c(=O)c2cc(S(=O)(=O)N[C@@H]3CC[C@H]3CO)ccc2n(CC)c1=O (single isomer, unassigned)
≥ 5000 nM
2. CC(C)C(=O)N1CCN(c2cc(S(=O)(=O)NC3(C#N)COC3)cc3c2cnn3-c2nnc(C(F)F)s2)CC1
< 50 nM
3. CC1(NS(=O)(=O)c2cc(N3CCN(C(=O)C4CCCC4)CC3)c3cnn(-c4nnc(C(F)F)s4)c3c2)COC1
< 50 nM
4. CC1(NS(=O)(=O)c2cc(Cl)c3cnn(-c4nnc(C(F)F)s4)c3c2)COC1
50 to 500 nM
5. N#CC1(NS(=O)(=O)c2cc(N3CCN(C(=O)C4CC4)CC3)c3cnn(-c4nnc(C(F)F)s4)c3c2)COC1
< 50 nM
6. CC1(NS(=O)(=O)c2ccc3cnn(-c4nnc(C(F)F)s4)c3c2)COC1
50 to 500 nM
7. Cc1ncc(Cn2c(=O)c3cc(S(=O)(=O)NC4(C#N)COC4)ccc3n(Cc3sc(C)nc3C)c2=O)s1 [Example 25B]
50 to 500 nM

QUERY: State its IC50 on PARG (Homo sapiens (Human)): CCn1c(=O)c2cc(S(=O)(=O)NC3(C(F)F)COC3)ccc2n(CC)c1=O
RESULT: 500 to 5000 nM
